- Assayed system: UniProt:P04629
- Sequence (P04629 33-796): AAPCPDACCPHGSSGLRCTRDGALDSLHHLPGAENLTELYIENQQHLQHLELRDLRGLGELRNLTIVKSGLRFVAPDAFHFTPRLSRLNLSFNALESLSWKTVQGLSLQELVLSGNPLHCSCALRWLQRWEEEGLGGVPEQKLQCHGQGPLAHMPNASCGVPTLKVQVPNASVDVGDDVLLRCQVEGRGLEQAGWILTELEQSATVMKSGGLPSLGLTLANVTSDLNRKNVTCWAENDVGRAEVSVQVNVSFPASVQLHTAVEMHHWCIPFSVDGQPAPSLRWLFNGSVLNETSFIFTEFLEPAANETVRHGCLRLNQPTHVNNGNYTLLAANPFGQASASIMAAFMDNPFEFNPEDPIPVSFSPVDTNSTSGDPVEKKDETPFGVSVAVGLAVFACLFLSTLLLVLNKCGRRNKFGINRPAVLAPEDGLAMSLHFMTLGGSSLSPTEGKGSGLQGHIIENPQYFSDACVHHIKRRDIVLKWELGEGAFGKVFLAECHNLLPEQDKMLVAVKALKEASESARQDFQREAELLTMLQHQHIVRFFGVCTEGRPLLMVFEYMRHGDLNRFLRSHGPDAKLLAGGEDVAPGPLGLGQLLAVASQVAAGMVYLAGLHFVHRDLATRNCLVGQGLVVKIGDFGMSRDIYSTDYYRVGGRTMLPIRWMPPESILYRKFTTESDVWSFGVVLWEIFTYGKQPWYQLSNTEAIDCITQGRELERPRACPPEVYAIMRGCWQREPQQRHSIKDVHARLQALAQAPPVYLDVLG
- Assay method text: Assay of small molecular compounds for inhibiting the activity of TRKA kinase (LANCE TR-FRET)
- Assay type: biochemical
Readout kind: IC50

Compound	Assayed system	Data value
CCOc1ccn(-c2ccc(C)cc2)c(=O)c1C(=O)Nc1ccc(Oc2ccnc3cc(OC)c4c(c23)OCCO4)c(F)c1 [Example 112]	UniProt:P04629	< 50 nM

Inquiry: # get_value(readout='IC50', item= O=C(Nc1ccc(Oc2ccnc3ccc4c(c23)OCCO4)cc1F)c1cccn(-c2ccc(F)cc2)c1=O [Example 170] )
Reply text: < 50 nM

Inquiry: Look at this compound and give its reported IC50. CCOc1ccn(-c2ccc(F)cc2)c(=O)c1C(=O)Nc1ccc(Oc2ccnc3cc(OCCOC)c4c(c23)OCCO4)c(F)c1 [Example 36]
Reply text: < 50 nM

Inquiry: Fill blank: measured IC50 of the compound CCOc1ccn(-c2ccc(F)cc2)c(=O)c1C(=O)Nc1ccc(Oc2ccnc3ccc4c(c23)OCCO4)c(F)c1 [Example 168] is ____.
Reply text: 50 to 500 nM

Inquiry: Requested read-out: IC50. Entry: CCOc1cc2nccc(Oc3ccc(NC(=O)c4c(OCC)ccn(-c5ccc(F)cc5)c4=O)c(Cl)c3)c2c2c1OCCO2 [Example 130]
Reply text: < 50 nM
